System: M. avium (MAC)
Experiment description: Broth dilution MIC against Mycobacterium avium complex isolates
Assay type: cell-based
Test conditions: 168 h, isolate MAC LPR
Metric name: MIC (µg/mL)
Your answer should be a plain number; it is taken to be in µg/mL.

Some entries whose results are on file:
// lookup MIC | system=M. avium (MAC) | key= Nc1ccc(S(=O)(=O)c2ccc(N)cc2)cc1
32

Please answer likewise for [H]/N=C(\N/C(=N/[H])Nc1ccc(Cl)cc1)NC(C)C
128

Consider the additional compound presented here.
Provide value of MIC for this record tested with M. avium (MAC): Cc1cc(C)nc(NS(=O)(=O)c2ccc(N)cc2)n1
32
